From: the array DNA melting data of Ke et al. (doi:10.1101/2024.01.08.574731)

Assay: folding enthalpy; higher = less favourable; fluorescence melt of hairpins on a sequencing array, two-state fit
Details: sodium 0.088 M
OUTCOME_MEASURE: folding enthalpy (kcal/mol)
Give bare numbers, in kcal/mol.

- BIOSEQUENCE: "GCGTATGGAAACATGTGC ((..(((....)))..))"
  folding enthalpy (kcal/mol): -11.6
- BIOSEQUENCE: "GAGTTTGGAAACGAACTC (((((.(....).)))))"
  folding enthalpy (kcal/mol): -36.2
- BIOSEQUENCE: "GATCCTGATAAGGATC ((((((....))))))"
  folding enthalpy (kcal/mol): -37
- BIOSEQUENCE: "GCCTGTCGAAAGACGGC (((.(((....))))))"
  folding enthalpy (kcal/mol): -31.2
- BIOSEQUENCE: "GCGAGCGAAAGCTCACGC ((((((....)))..)))"
  folding enthalpy (kcal/mol): -14.8
- BIOSEQUENCE: "GCACTGGGAAACCAGCGC ((.((((....)))).))"
  folding enthalpy (kcal/mol): -40.7
- BIOSEQUENCE: "GAATCACGAAAGTGTTC (((.(((....))))))"
  folding enthalpy (kcal/mol): -15.5
- BIOSEQUENCE: "GCTTAATCGAAAGATAGC (((..(((....))))))"
  folding enthalpy (kcal/mol): -16.4
- BIOSEQUENCE: "GCTGCCGAAAGGCCTAGC ((((((....)))..)))"
  folding enthalpy (kcal/mol): -14.2
- BIOSEQUENCE: "GGCTCTGGAAACAGAACC ((.((((....)))).))"
  folding enthalpy (kcal/mol): -35.1

For each of the sequences below, state folding enthalpy.
1. GCCCGCGAAAGCGCCGGC ((((((....)))..)))
2. GCGGACGAAAGTCGGCGC ((((((....)))..)))

Result:
1: -17.5; 2: -26.7
